Target: MycC (Homo sapiens)
Construct: endogenous in cells; host or cells: L363
Test: Degradation of MycC protein in L363 cells, JESS/Western blot of lysates
Assay type: cell-based
Settings: L-363, 24 h, L-363 cells, 24 h, 3 μM; read-out: % Degradation of MycC (L-363) 24 h, 3 μM
reported endpoint: Dmax at 3 µM

> print(dat)
                                   compound  reported.endpoint      result
1  CNC[C@H]1CCN(c2nccc(Nc3cc(C4CCCC4)[nH]n3)n2)C1       Dmax at 3 µM   50 to 79%
2  NC[C@@H]1CCCN(c2nccc(Nc3cc(C4CC4)[nH]n3)n2)C1       Dmax at 3 µM  80 to 100%
3  CC1(NCC23CC(C2)N(c2nccc(Nc4cc(C5CCCC5)[nH]n4)n2)C3)COC1       Dmax at 3 µM  80 to 100%

# context switch: different compound, same Dmax at 3 µM
IN: Consider the compound c1cc(Nc2cc(C3CC3)[nH]n2)nc(N2C[C@H]3CNC[C@@H]3C2)n1 (racemic) . State its measured Dmax at 3 µM.
OUT: 20 to 49%

###

Reported Dmax at 0.5 µM values for a set of compounds
Molecular target: MycN (Homo sapiens)
Construct: endogenous in cells; host or cells: SK-N-BE(2)
Sequence (P04198 whole entry): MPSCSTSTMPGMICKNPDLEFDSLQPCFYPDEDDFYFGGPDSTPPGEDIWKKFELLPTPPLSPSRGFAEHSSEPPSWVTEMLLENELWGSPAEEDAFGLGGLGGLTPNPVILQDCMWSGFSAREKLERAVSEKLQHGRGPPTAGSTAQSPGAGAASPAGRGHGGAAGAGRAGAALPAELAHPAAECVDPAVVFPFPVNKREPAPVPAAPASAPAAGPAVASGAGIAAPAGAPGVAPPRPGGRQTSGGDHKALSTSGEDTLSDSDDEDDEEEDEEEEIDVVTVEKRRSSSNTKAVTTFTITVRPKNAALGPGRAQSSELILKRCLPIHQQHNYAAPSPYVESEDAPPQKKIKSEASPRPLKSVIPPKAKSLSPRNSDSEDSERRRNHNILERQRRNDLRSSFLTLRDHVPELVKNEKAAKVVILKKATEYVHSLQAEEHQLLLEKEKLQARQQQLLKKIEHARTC
Assay: Degradation of MycN protein in SK-N-BE(2) cells, JESS/Western blot of lysates
Format: cell-based
Conditions: SKNBE2, 24 h, SKNBE2 cells, 24 h, 0.5 μM; read-out: % Degradation of MycN (SKNBE2) 24 h, 0.5 μM

> print(dat)
                                   compound  reported.endpoint     result
1  c1cc(Nc2cc(C3CC3)[nH]n2)nc(N2CCC3(CCNC3)C2)n1 (centres unmarked)     Dmax at 0.5 µM  20 to 49%
2  O=S1(=O)CCN(CC23CC(C2)N(c2nccc(Nc4cc(C5CCCC5)[nH]n4)n2)C3)CC1     Dmax at 0.5 µM      < 20%
3  c1cc(Nc2cc(C3CC3)[nH]n2)nc(N2CCC3(CNC3)C2)n1     Dmax at 0.5 µM      < 20%
4  CS(=O)(=O)CCNCC12CC(C1)N(c1nccc(Nc3cc(C4CCCC4)[nH]n3)n1)C2     Dmax at 0.5 µM      < 20%
5  c1cc(Nc2cc(C3CC3)[nH]n2)nc(N2CC3(CCCNC3)C2)n1     Dmax at 0.5 µM      < 20%

IN: Consider the compound CN(C)CCCN(C)c1nccc(Nc2cc(C3CC3)[nH]n2)n1 . State its measured Dmax at 0.5 µM.
OUT: < 20%

IN: Consider the compound CN1CC2(CCN(c3nccc(Nc4cc(C5CCCC5)[nH]n4)n3)C2)C1 . State its measured Dmax at 0.5 µM.
OUT: < 20%

IN: Consider the compound CNCC12CCC(C1)N(c1nccc(Nc3cc(C4CCCC4)[nH]n3)n1)C2 (centres unmarked) . State its measured Dmax at 0.5 µM.
OUT: 80 to 100%

###

Reported Dmax at 6 µM values for a set of molecules
Molecular target: MycC (Homo sapiens, UniProt P01106)
Construct: endogenous in cells; host or cells: L363
Sequence (P01106 whole entry): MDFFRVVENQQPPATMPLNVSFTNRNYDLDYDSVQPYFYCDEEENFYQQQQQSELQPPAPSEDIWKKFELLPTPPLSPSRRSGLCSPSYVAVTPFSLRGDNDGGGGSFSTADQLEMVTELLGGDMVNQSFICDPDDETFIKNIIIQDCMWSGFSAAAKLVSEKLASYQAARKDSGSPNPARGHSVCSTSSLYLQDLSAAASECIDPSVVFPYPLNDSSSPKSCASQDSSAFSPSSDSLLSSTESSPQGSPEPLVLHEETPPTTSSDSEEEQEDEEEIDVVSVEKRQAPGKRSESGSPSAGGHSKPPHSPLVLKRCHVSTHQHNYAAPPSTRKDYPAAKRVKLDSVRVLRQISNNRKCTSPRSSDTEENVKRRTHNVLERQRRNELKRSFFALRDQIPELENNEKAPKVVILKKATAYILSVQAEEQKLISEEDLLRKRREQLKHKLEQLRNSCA
Assay: Degradation of MycC protein in L363 cells, JESS/Western blot of lysates
Assay type: cell-based
Conditions: L-363, 24 h, L-363 cells, 24 h, 6 μM; read-out: % Degradation of MycC (L-363) 24 h, 6 μM

Example molecules with recorded Dmax at 6 µM:
> print(dat)
                                   molecule      result
1  CNCC12CC(C1)N(c1nccc(Nc3cc(C4CCCC4)ncn3)n1)C2   50 to 79%
2  CNC[C@H]1CCCN(c2nccc(Nc3cc(C4CC4)[nH]n3)n2)C1       < 20%
3  NCC1CN(c2nccc(Nc3cc(C4CC4)[nH]n3)n2)CC1(F)F (stereo not drawn)  80 to 100%
4  CN(C)CC1CCN(c2nccc(Nc3cc(C4CC4)[nH]n3)n2)CC1   20 to 49%
5  CNCC12CC(C1)N(c1nccc(Nc3cc(C4CC4)[nH]n3)n1)C2  80 to 100%
6  NCC1CN(c2nccc(Nc3cc(C4CCCC4)[nH]n3)n2)CC1(F)F (stereo not drawn)  80 to 100%
7  c1cc(Nc2cc(C3CC3)[nH]n2)nc(N2C[C@H]3CN[C@H]3C2)n1       < 20%
8  c1cc(Nc2cc(C3CC3)[nH]n2)nc(N2CC3(CNC3)C2)n1   20 to 49%

# context switch: different molecule, same Dmax at 6 µM
IN: Please report Dmax at 6 µM with MycC (Homo sapiens, UniProt P01106) for item CNCCCN(C)c1nccc(Nc2cc(C3CC3)[nH]n2)n1 .
OUT: 20 to 49%

###

Molecular target: MycN (Homo sapiens)
Construct: endogenous in cells; host or cells: SK-N-BE(2)
Experiment: Degradation of MycN protein in SK-N-BE(2) cells, JESS/Western blot of lysates
Type: cell-based
Settings: SKNBE2, 24 h, SKNBE2 cells, 24 h, 1 μM; read-out: % Degradation of MycN (SKNBE2) 24 h, 1 μM
reported endpoint: Dmax at 1 µM

> print(dat)
                                   compound     result
1  c1cc(Nc2cc(C3CC3)[nH]n2)nc(N2CC3(CNC3)C2)n1 [Compound 6]      < 20%
2  CN(C)CCCNc1nccc(Nc2cc(C3CC3)[nH]n2)n1 [Compound 20]      < 20%
3  CN(C)C[C@H]1CCN(c2nccc(Nc3cc(C4CC4)[nH]n3)n2)C1 (stereo in doubt) [Compound 32]  20 to 49%
4  NC[C@H]1CCN(c2nccc(Nc3cc(C4CCCC4)[nH]n3)n2)C1 [Compound 23]  50 to 79%
5  CN1CC2(CCN(c3nccc(Nc4cc(C5CC5)[nH]n4)n3)CC2)C1 [Compound 44]      < 20%

IN: Consider the compound NC[C@@H]1CN(c2nccc(Nc3cc(C4CCCC4)[nH]n3)n2)CCO1 [Compound 116] . State its measured Dmax at 1 µM.
OUT: < 20%

IN: Consider the compound CNC[C@H]1CN(c2nccc(Nc3cc(C4CC4)[nH]n3)n2)C[C@H]1F [Compound 191] . State its measured Dmax at 1 µM.
OUT: 20 to 49%

IN: Consider the compound CN(C)CC12CC(C1)N(c1nccc(Nc3cc(C4CC4)[nH]n3)n1)C2 [Compound 22] . State its measured Dmax at 1 µM.
OUT: < 20%

IN: Consider the compound FC(F)(F)CNCC12CC(C1)N(c1nccc(Nc3cc(C4CCCC4)[nH]n3)n1)C2 [Compound 71] . State its measured Dmax at 1 µM.
OUT: 50 to 79%

IN: Consider the compound c1cc(Nc2cc(C3CC3)[nH]n2)nc(N2CCC3(CNC3)C2)n1 [Compound 2] . State its measured Dmax at 1 µM.
OUT: < 20%

###

Molecular target: MycN (Homo sapiens)
Construct: endogenous in cells; host or cells: SK-N-BE(2)
Experiment: Degradation of MycN protein in SK-N-BE(2) cells, JESS/Western blot of lysates
Format: cell-based
Conditions: SKNBE2, 24 h, SKNBE2 cells, 24 h, 6 μM; read-out: % Degradation of MycN (SKNBE2) 24 h, 6 μM
Reported Dmax at 6 µM values for a set of compounds

Example compounds with recorded Dmax at 6 µM:
> print(dat)
                                   compound  reported.endpoint      result
1  CN1CC2(C1)CN(c1nccc(Nc3cc(C4CCCC4)[nH]n3)n1)C2       Dmax at 6 µM   20 to 49%
2  CN1C[C@@H]2CN(c3nccc(Nc4cc(C5CC5)[nH]n4)n3)C[C@@H]2C1       Dmax at 6 µM  80 to 100%
3  CNCC12CC(C1)N(c1ncc(C)c(Nc3cc(C4CCCC4)[nH]n3)n1)C2       Dmax at 6 µM  80 to 100%
4  NC[C@@H]1CCCN(c2nccc(Nc3cc(C4CC4)[nH]n3)n2)C1       Dmax at 6 µM  80 to 100%
5  CNC[C@@H]1CCN(c2nccc(Nc3cc(C4CCCC4)[nH]n3)n2)C1       Dmax at 6 µM  80 to 100%

IN: Consider the compound NC[C@@H]1CN(c2nccc(Nc3cc(C4CC4)[nH]n3)n2)C[C@@H]1F . State its measured Dmax at 6 µM.
OUT: 80 to 100%

IN: Consider the compound NC[C@H]1CCN(c2nccc(Nc3cc(C4CCCC4)[nH]n3)n2)C1 . State its measured Dmax at 6 µM.
OUT: 80 to 100%

IN: Consider the compound NC[C@@H]1CCN(c2nccc(Nc3cc(C4CCCC4)[nH]n3)n2)C1 . State its measured Dmax at 6 µM.
OUT: 80 to 100%

IN: Consider the compound c1cc(Nc2cc(C3CCCC3)[nH]n2)nc(N2CC3(CN4CCCC4)CC2C3)n1 . State its measured Dmax at 6 µM.
OUT: 80 to 100%

IN: Consider the compound CN(C)CCCNc1nccc(Nc2cc(C3CC3)[nH]n2)n1 . State its measured Dmax at 6 µM.
OUT: 50 to 79%

IN: Consider the compound CNCC12CC(C1)N(c1nccc(Nc3cc(C4CCCC4)[nH]n3)n1)C2 . State its measured Dmax at 6 µM.
OUT: 80 to 100%

IN: Consider the compound NCC1CN(c2nccc(Nc3cc(C4CCCC4)[nH]n3)n2)CC(F)(F)C1 (stereo not drawn) . State its measured Dmax at 6 µM.
OUT: 80 to 100%

IN: Consider the compound CNCC1CCN(c2nccc(Nc3cc(C4CC4)[nH]n3)n2)CC1 . State its measured Dmax at 6 µM.
OUT: 50 to 79%

IN: Consider the compound CN1CC2(C1)CN(c1nccc(Nc3cc(C4CC4)[nH]n3)n1)C2 . State its measured Dmax at 6 µM.
OUT: 20 to 49%

IN: Consider the compound NC[C@@H]1CCCN(c2nccc(Nc3cc(C4CCCC4)[nH]n3)n2)C1 . State its measured Dmax at 6 µM.
OUT: 80 to 100%

IN: Consider the compound NC[C@H]1CN(c2nccc(Nc3cc(C4CCCC4)[nH]n3)n2)CCO1 . State its measured Dmax at 6 µM.
OUT: 50 to 79%

IN: Consider the compound CNC[C@H]1CCN(c2nccc(Nc3cc(C4CCCC4)[nH]n3)n2)C1 . State its measured Dmax at 6 µM.
OUT: 80 to 100%

IN: Consider the compound CNCC12CCC(C1)N(c1nccc(Nc3cc(C4CC4)[nH]n3)n1)C2 (stereo not drawn) . State its measured Dmax at 6 µM.
OUT: 80 to 100%
